- target.desc: Endoribonuclease Dicer (Homo sapiens) (UniProt Q9UPY3)
- Sequence (Q9UPY3 whole entry, looked up): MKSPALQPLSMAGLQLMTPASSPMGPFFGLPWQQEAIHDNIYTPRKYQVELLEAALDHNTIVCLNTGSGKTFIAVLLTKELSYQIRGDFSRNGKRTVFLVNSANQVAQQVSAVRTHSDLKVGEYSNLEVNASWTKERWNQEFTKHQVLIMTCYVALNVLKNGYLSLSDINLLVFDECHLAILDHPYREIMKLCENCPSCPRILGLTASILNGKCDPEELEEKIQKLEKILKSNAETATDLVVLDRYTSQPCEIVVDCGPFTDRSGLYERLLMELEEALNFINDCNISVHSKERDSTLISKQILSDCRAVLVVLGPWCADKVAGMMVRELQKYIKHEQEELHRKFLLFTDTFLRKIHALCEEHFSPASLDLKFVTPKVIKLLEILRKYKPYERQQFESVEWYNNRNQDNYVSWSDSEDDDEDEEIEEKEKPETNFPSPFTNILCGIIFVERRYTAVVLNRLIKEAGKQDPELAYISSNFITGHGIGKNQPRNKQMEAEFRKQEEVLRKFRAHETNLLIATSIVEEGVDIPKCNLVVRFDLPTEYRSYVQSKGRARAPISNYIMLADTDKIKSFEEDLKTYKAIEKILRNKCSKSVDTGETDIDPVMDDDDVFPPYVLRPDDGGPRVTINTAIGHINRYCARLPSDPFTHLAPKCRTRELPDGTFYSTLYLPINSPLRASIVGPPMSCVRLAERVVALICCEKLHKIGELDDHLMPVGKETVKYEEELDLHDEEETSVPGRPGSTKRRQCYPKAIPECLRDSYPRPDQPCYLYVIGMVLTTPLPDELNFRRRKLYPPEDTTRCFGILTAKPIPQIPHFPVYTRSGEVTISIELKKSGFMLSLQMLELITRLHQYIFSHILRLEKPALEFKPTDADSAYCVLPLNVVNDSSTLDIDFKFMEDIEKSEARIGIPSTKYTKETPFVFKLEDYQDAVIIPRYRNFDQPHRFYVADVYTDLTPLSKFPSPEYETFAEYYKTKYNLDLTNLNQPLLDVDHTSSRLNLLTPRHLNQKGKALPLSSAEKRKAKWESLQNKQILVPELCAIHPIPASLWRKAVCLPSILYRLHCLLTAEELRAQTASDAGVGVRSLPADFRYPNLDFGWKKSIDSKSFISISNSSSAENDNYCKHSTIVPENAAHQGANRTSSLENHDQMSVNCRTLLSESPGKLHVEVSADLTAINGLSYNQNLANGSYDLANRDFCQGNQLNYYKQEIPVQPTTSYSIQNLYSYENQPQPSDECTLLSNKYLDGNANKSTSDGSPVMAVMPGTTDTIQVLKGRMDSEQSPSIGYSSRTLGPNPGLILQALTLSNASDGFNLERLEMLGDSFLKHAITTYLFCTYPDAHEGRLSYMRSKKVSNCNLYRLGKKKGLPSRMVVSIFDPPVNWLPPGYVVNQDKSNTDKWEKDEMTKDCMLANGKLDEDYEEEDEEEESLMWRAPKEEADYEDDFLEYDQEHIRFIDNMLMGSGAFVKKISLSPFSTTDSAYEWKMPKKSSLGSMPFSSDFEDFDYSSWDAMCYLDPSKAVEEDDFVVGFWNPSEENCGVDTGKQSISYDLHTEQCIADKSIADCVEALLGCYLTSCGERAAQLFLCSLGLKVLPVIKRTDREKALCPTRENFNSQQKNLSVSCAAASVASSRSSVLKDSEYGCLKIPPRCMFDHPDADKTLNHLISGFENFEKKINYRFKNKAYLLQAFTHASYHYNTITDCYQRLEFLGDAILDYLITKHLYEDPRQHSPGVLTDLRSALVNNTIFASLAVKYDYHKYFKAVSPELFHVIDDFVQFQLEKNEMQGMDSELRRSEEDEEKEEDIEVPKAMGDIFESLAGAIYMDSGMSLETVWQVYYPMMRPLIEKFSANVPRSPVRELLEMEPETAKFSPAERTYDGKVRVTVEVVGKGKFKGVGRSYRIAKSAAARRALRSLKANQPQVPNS
- experimental.details: Dicer cleavage of pre-miR-21 blockers – biochemical, cat-ELCCA, chemiluminescence, primary screen (AID 1347074);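 also: higher signal means more uncleaved substrate so more Dicer inhibition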
- run.conditions: cat-ELCCA pre-miR-21 Dicer processing, at 25 µM, active compounds read high
Hit rate of the full screen: of about 47,000 compounds, about 2,800 (6%) were called active. What follows is part of a selection rich in actives, with near analogues and random picks from the rest.
Tick Fulfilled if z-score is 2 or greater. Tick Not fulfilled if z-score is less than 2.

Please review the entries below; each comes with its answer.
{"compound": "Cc1cc(C)c2c(-n3cccc3)c(C(=O)c3ccc(Cl)cc3)sc2n1", "target.desc": "Endoribonuclease Dicer (Homo sapiens) (UniProt Q9UPY3)", "answer.label": "Not fulfilled"}
{"compound": "O=C(Nc1cc(Cl)cc(Cl)c1)Nc1cnccc1C(F)(F)F", "target.desc": "Endoribonuclease Dicer (Homo sapiens) (UniProt Q9UPY3)", "answer.label": "Not fulfilled"}
{"compound": "CC(C)(C)NC(=S)Nc1ccc(F)c(Cl)c1", "target.desc": "Endoribonuclease Dicer (Homo sapiens) (UniProt Q9UPY3)", "answer.label": "Fulfilled"}
{"compound": "O=C(O)c1cnc(NCc2ccccc2)s1", "target.desc": "Endoribonuclease Dicer (Homo sapiens) (UniProt Q9UPY3)", "answer.label": "Not fulfilled"}
{"compound": "COc1cc(C2C3=C(CC(C)(C)CC3=O)NC3=C2C(=O)CC(C)(C)C3)ccc1O", "target.desc": "Endoribonuclease Dicer (Homo sapiens) (UniProt Q9UPY3)", "answer.label": "Not fulfilled"}

Asked: Hi, just wondering whether CCc1ccccc1N1CC23C=CC(O2)C(C(=O)OC(C)C)C3C1=O (stereo unspecified) shows z-score of 2 or higher.
Given back: Not fulfilled

Asked: Hi, just wondering whether `CCCc1nnc2n1Nc1nc3ccccc3nc1S2` shows z-score of 2 or higher.
Given back: Not fulfilled

Asked: Hi, just wondering whether `Cc1ccc2nc(CCC(=O)O)[nH]c2c1` shows z-score of 2 or higher.
Given back: Not fulfilled

----------
- target.desc: Endoribonuclease Dicer (Homo sapiens) (UniProt Q9UPY3)
- experimental.details: Dicer cleavage of pre-miR-21 blockers – biochemical, cat-ELCCA, chemiluminescence, primary screen (AID 1347074);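 also: higher signal means more uncleaved substrate so more Dicer inhibition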
- run.conditions: cat-ELCCA pre-miR-21 Dicer processing, at 25 µM, active compounds read high
About 2,800 (6%) of roughly 47,000 compounds were called active. The entries come from a sample that favours actives as a whole.
Tick rule met if z-score is -0.2 or greater. Tick rule not met if z-score is less than -0.2.

{"molecule": "O=C(NCCc1c[nH]c2ccccc12)C(=O)NCC1CCCO1 (centres undefined)", "answer.label": "rule not met"}
{"molecule": "O=C1CC(=O)CC(c2cccc(Cl)c2)C1", "answer.label": "rule not met"}
{"molecule": "O=C(CSc1nc2ccccc2nc1N1CCCC1)NCc1cccs1", "answer.label": "rule met"}
{"molecule": "Cc1cc(C)c(S(=O)(=O)N2CCc3ccccc3C2)c(C)c1", "answer.label": "rule met"}
{"molecule": "CCCOc1ccc(N2C(=O)CC(N3CCC(C)CC3)C2=O)cc1 (centres undefined)", "answer.label": "rule met"}

Asked: Hi, just wondering whether `CC(C)(C)NC(=O)c1nn2c(C(F)(F)F)cc(-c3ccccc3)nc2c1Cl` shows z-score of -0.2 or higher.
Given back: rule not met

Asked: Hi, just wondering whether `CC(C)(C)c1cc2nc(-c3ccc4c(c3)CCC4)cc(C(F)(F)F)n2n1` shows z-score of -0.2 or higher.
Given back: rule not met

Asked: Hi, just wondering whether CC1CC(=O)Nc2ccccc2N1C(=O)Nc1cccc(Cl)c1Cl (centres undefined) shows z-score of -0.2 or higher.
Given back: rule not met

----------
- target.desc: Endoribonuclease Dicer (Homo sapiens) (UniProt Q9UPY3)
- experimental.details: Dicer cleavage of pre-miR-21 blockers – biochemical, cat-ELCCA, chemiluminescence, primary screen (AID 1347074);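 also: higher signal means more uncleaved substrate so more Dicer inhibition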
- run.conditions: cat-ELCCA pre-miR-21 Dicer processing, at 25 µM
Screen size: about 47,000 compounds; about 2,800 (6%) were called active. Cut-off read from the data, not from the text of the source: active = z-score above about 3 (passing the limit was not always enough); inactive = the rest. Many of the other results were omitted from the sample, so actives are more common in it than they were.
Your response should consist of one outcome taken from active, inactive

Please review the entries below; each comes with its answer.
{"molecule": "COCCCNC(=S)N/N=C/c1ccccc1Cl", "answer.label": "inactive"}
{"molecule": "Cc1cc(N2C(=O)CC(C)(C)CC2=O)n(C)n1", "answer.label": "inactive"}
{"molecule": "CC1=CC(C)(C)N(C(=O)NC2CCCCC2)c2ccc(C)cc21", "answer.label": "inactive"}
{"molecule": "Cn1nccc1NS(=O)(=O)c1ccc(F)cc1", "answer.label": "inactive"}
{"molecule": "Cc1cc(C(C)(C)C)ccc1NC(=O)COCC(=O)O", "answer.label": "inactive"}
{"molecule": "O=C(O)c1ccc(N2C(=O)CC(N3CCCCC3)C2=O)cc1 (centres undefined)", "answer.label": "inactive"}

Asked: Query: recorded result category for `CCOc1ccc(S(=O)(=O)Nc2ccncc2)c(C)c1C` in this test
Given back: inactive

Asked: Query: recorded result category for `COC(=O)c1c(C)oc2ccc(NS(=O)(=O)c3cccc4cccnc34)cc12` in this test
Given back: active

Asked: Query: recorded result category for `COc1cccc(-c2nc(-c3cc4cc(C)ccc4[nH]c3=O)no2)c1` in this test
Given back: inactive

Asked: Query: recorded result category for `CC(C)c1cc(C(C)C)c(S(=O)(=O)NCc2cccnc2)c(C(C)C)c1` in this test
Given back: inactive

Asked: Query: recorded result category for CC1=C(C(=O)OCc2ccccc2)C(c2ccc3c(c2)OCO3)C2=C(CC(c3cccs3)CC2=O)N1 (centres undefined) in this test
Given back: active

Asked: Query: recorded result category for CCCN1C(=O)C(O)(CC(=O)c2ccc(C(C)(C)C)cc2)c2ccccc21 (centres undefined) in this test
Given back: inactive

----------
- target.desc: Endoribonuclease Dicer (Homo sapiens) (UniProt Q9UPY3)
- experimental.details: Dicer cleavage of pre-miR-21 blockers – biochemical, cat-ELCCA, chemiluminescence, primary screen (AID 1347074);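 also: higher signal means more uncleaved substrate so more Dicer inhibition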
- run.conditions: cat-ELCCA pre-miR-21 Dicer processing, at 25 µM
The whole screen tested about 47,000 compounds, of which about 2,800 (6%) were called active. Cut-off read from the data, not from the text of the source: active = z-score above about 3 (passing the limit was not always enough); inactive = the rest. This is one part of a sample in which actives are shown more often than they occur.
Your response should consist of one outcome taken from active, inactive

Please review the entries below; each comes with its answer.
{"molecule": "COCCCNC(=O)Cn1cc(C(=O)C2CC2)c2ccccc21", "answer.label": "inactive"}
{"molecule": "Cc1ccc(-c2cc3nccc(-c4ccccc4O)n3n2)cc1", "answer.label": "active"}
{"molecule": "Cc1c(Br)c([N+](=O)[O-])nn1CC(=O)NCCCn1ccnc1", "answer.label": "inactive"}
{"molecule": "CC1([N+](=O)[O-])COC(c2ccccc2)OC1 (stereo not drawn)", "answer.label": "inactive"}
{"molecule": "CCc1ccc(C(=O)/C=C/Sc2ccccn2)cc1", "answer.label": "active"}
{"molecule": "O=C(Nc1ccccc1)Nc1ccc(C(F)(F)F)cn1", "answer.label": "inactive"}

Asked: Query: recorded result category for `Cc1ccc2oc(-c3cccc(N4C(=O)c5cccnc5C4=O)c3)nc2c1` in this test
Given back: inactive

Asked: Query: recorded result category for O=C(CC1(O)C(=O)N(CCc2ccccc2)c2ccccc21)c1cccc(-n2cccc2)c1 (stereo not drawn) in this test
Given back: inactive

Asked: Query: recorded result category for `CCOC(=O)c1cc(CC)sc1NC(=O)c1cccc(C(F)(F)F)c1` in this test
Given back: inactive

Asked: Query: recorded result category for `CCOC(=O)Cc1csc(NC(=O)Nc2cccc3ccccc23)n1` in this test
Given back: inactive

Asked: Query: recorded result category for `Cc1sc2nc3n(c(=O)c2c1C)N=C(c1cccs1)CS3` in this test
Given back: inactive

Asked: Query: recorded result category for `O=C1COCC(=O)N1c1ccc2c(c1)OCO2` in this test
Given back: active

Asked: Query: recorded result category for `Cc1ncc([N+](=O)[O-])n1CCOC(=O)c1ccc(Br)cc1` in this test
Given back: inactive

Asked: Query: recorded result category for COc1cc(OC)cc(-c2nc3n(n2)C(c2ccc(OC)c(OC)c2)C2=C(CC(C)(C)CC2=O)N3)c1 (stereo not drawn) in this test
Given back: inactive

Asked: Query: recorded result category for `CSc1scc(NC(=O)Nc2cc(Cl)cc(Cl)c2)c1S(=O)(=O)C(C)C` in this test
Given back: active

Asked: Query: recorded result category for `CCOC(=O)CSC(=NC)NNC(=O)c1c(C)nc2cc(C)ccn12` in this test
Given back: inactive

Asked: Query: recorded result category for CC1CCN(C(=S)NC2CC3CCC2C3)CC1 (stereo not drawn) in this test
Given back: inactive

Asked: Query: recorded result category for COc1cc(C2C3=C(CC(C)(C)CC3=O)Nc3ncnn32)ccc1OC(C)C (stereo not drawn) in this test
Given back: active
